# reportedConditions: in acetone, 295.15 K
readoutType: solubility (mole fraction)

[[record]]
smilesstr = "Fc1c(I)c(F)c(I)c(F)c1I"
recordedvalue = "3.22e-05"


###

# reportedConditions: in acetonitrile, 327.35 K
readoutType: solubility (mole fraction)

[[record]]
smilesstr = "Fc1c(I)c(F)c(I)c(F)c1I"
readouttype = "solubility (mole fraction)"
recordedvalue = 0.00842


###

# reportedConditions: in methanol, 311.15 K
readoutType: solubility (mole fraction)

[[record]]
smilesstr = "Fc1c(I)c(F)c(I)c(F)c1I"
readouttype = "solubility (mole fraction)"
recordedvalue = 0.00011


###

# reportedConditions: in toluene, 311.15 K
readoutType: solubility (mole fraction)

[[record]]
smilesstr = "Fc1c(I)c(F)c(I)c(F)c1I"
readouttype = "solubility (mole fraction)"
recordedvalue = 0.000404


###

# reportedConditions: in n-hexane, 308.95 K
readoutType: solubility (mole fraction)

[[record]]
smilesstr = "Fc1c(I)c(F)c(I)c(F)c1I"
readouttype = "solubility (mole fraction)"
recordedvalue = 0.00908


###

# reportedConditions: in ethyl acetate, 317.15 K
readoutType: solubility (mole fraction)

[[record]]
smilesstr = "Fc1c(I)c(F)c(I)c(F)c1I"
readouttype = "solubility (mole fraction)"
recordedvalue = 0.00136


###

# reportedConditions: in acetone, 314.15 K
readoutType: solubility (mole fraction)

[[record]]
smilesstr = "Fc1c(I)c(F)c(I)c(F)c1I"
recordedvalue = 0.000127


###

# reportedConditions: in ethyl acetate, 295.15 K
readoutType: solubility (mole fraction)

[[record]]
smilesstr = "Fc1c(I)c(F)c(I)c(F)c1I"
readouttype = "solubility (mole fraction)"
recordedvalue = 0.000621


###

# reportedConditions: in ethanol, 290.15 K
readoutType: solubility (mole fraction)

[[record]]
smilesstr = "Fc1c(I)c(F)c(I)c(F)c1I"
recordedvalue = 0.00057


###

# reportedConditions: in acetonitrile, 301.55 K
readoutType: solubility (mole fraction)

[[record]]
smilesstr = "Fc1c(I)c(F)c(I)c(F)c1I"
readouttype = "solubility (mole fraction)"
recordedvalue = 0.00469


###

# reportedConditions: in acetonitrile, 290.35 K
readoutType: solubility (mole fraction)

[[record]]
smilesstr = "Fc1c(I)c(F)c(I)c(F)c1I"
readouttype = "solubility (mole fraction)"
recordedvalue = 0.00382


###

# reportedConditions: in toluene, 308.15 K
readoutType: solubility (mole fraction)

[[record]]
smilesstr = "Fc1c(I)c(F)c(I)c(F)c1I"
readouttype = "solubility (mole fraction)"
recordedvalue = 0.000368


###

# reportedConditions: in THF, 310.25 K
readoutType: solubility (mole fraction)

[[record]]
smilesstr = "Fc1c(I)c(F)c(I)c(F)c1I"
recordedvalue = 0.00555


###

# reportedConditions: in acetone, 317.15 K
readoutType: solubility (mole fraction)

[[record]]
smilesstr = "Fc1c(I)c(F)c(I)c(F)c1I"
readouttype = "solubility (mole fraction)"
recordedvalue = 0.000144


###

# reportedConditions: in isopropanol, 316.55 K
readoutType: solubility (mole fraction)

[[record]]
smilesstr = "Fc1c(I)c(F)c(I)c(F)c1I"
readouttype = "solubility (mole fraction)"
recordedvalue = 0.00598


###

# reportedConditions: in isopropanol, 326.85 K
readoutType: solubility (mole fraction)

[[record]]
smilesstr = "Fc1c(I)c(F)c(I)c(F)c1I"
recordedvalue = 0.00745


###

# reportedConditions: in acetonitrile, 306.95 K
readoutType: solubility (mole fraction)

[[record]]
smilesstr = "Fc1c(I)c(F)c(I)c(F)c1I"
recordedvalue = 0.00536


###

# reportedConditions: in acetonitrile, 316.95 K
readoutType: solubility (mole fraction)

[[record]]
smilesstr = "Fc1c(I)c(F)c(I)c(F)c1I"
recordedvalue = 0.00636


###

# reportedConditions: in 1,4-dioxane, 302.15 K
readoutType: solubility (mole fraction)

[[record]]
smilesstr = "Fc1c(I)c(F)c(I)c(F)c1I"
readouttype = "solubility (mole fraction)"
recordedvalue = 0.000413


###

# reportedConditions: in n-hexane, 329.35 K
readoutType: solubility (mole fraction)

[[record]]
smilesstr = "Fc1c(I)c(F)c(I)c(F)c1I"
readouttype = "solubility (mole fraction)"
recordedvalue = 0.0149


###

# reportedConditions: in n-propanol, 291.25 K
readoutType: solubility (mole fraction)

[[record]]
smilesstr = "Fc1c(I)c(F)c(I)c(F)c1I"
recordedvalue = 0.00216


###

# reportedConditions: in methanol, 330.15 K
readoutType: solubility (mole fraction)

[[record]]
smilesstr = "Fc1c(I)c(F)c(I)c(F)c1I"
recordedvalue = 0.000154


###

# reportedConditions: in n-hexane, 303.85 K
readoutType: solubility (mole fraction)

[[record]]
smilesstr = "Fc1c(I)c(F)c(I)c(F)c1I"
recordedvalue = 0.00818


###

# reportedConditions: in 1,4-dioxane, 308.15 K
readoutType: solubility (mole fraction)

[[record]]
smilesstr = "Fc1c(I)c(F)c(I)c(F)c1I"
readouttype = "solubility (mole fraction)"
recordedvalue = 0.000506


###

# reportedConditions: in n-propanol, 331.45 K
readoutType: solubility (mole fraction)

[[record]]
smilesstr = "Fc1c(I)c(F)c(I)c(F)c1I"
readouttype = "solubility (mole fraction)"
recordedvalue = 0.00643


###

# reportedConditions: in 1,4-dioxane, 305.15 K
readoutType: solubility (mole fraction)

[[record]]
smilesstr = "Fc1c(I)c(F)c(I)c(F)c1I"
readouttype = "solubility (mole fraction)"
recordedvalue = 0.000456


###

# reportedConditions: in 1,2-dichloroethane, 330.15 K
readoutType: solubility (mole fraction)

[[record]]
smilesstr = "Fc1c(I)c(F)c(I)c(F)c1I"
recordedvalue = 0.000263


###

# reportedConditions: in methanol, 305.15 K
readoutType: solubility (mole fraction)

[[record]]
smilesstr = "Fc1c(I)c(F)c(I)c(F)c1I"
recordedvalue = "8.12e-05"


###

# reportedConditions: in ethyl acetate, 320.15 K
readoutType: solubility (mole fraction)

[[record]]
smilesstr = "Fc1c(I)c(F)c(I)c(F)c1I"
recordedvalue = 0.00145


###

# reportedConditions: in n-propanol, 296.35 K
readoutType: solubility (mole fraction)

[[record]]
smilesstr = "Fc1c(I)c(F)c(I)c(F)c1I"
recordedvalue = 0.00274


###

# reportedConditions: in acetonitrile, 321.55 K
readoutType: solubility (mole fraction)

[[record]]
smilesstr = "Fc1c(I)c(F)c(I)c(F)c1I"
readouttype = "solubility (mole fraction)"
recordedvalue = 0.00722


###

# reportedConditions: in toluene, 314.15 K
readoutType: solubility (mole fraction)

[[record]]
smilesstr = "Fc1c(I)c(F)c(I)c(F)c1I"
readouttype = "solubility (mole fraction)"
recordedvalue = 0.000444


###

# reportedConditions: in toluene, 320.15 K
readoutType: solubility (mole fraction)

[[record]]
smilesstr = "Fc1c(I)c(F)c(I)c(F)c1I"
recordedvalue = 0.000515


###

# reportedConditions: in THF, 305.15 K
readoutType: solubility (mole fraction)

[[record]]
smilesstr = "Fc1c(I)c(F)c(I)c(F)c1I"
readouttype = "solubility (mole fraction)"
recordedvalue = 0.00534


###

# reportedConditions: in ethanol, 295.15 K
readoutType: solubility (mole fraction)

[[record]]
smilesstr = "Fc1c(I)c(F)c(I)c(F)c1I"
recordedvalue = 0.000735


###

# reportedConditions: in ethyl acetate, 314.15 K
readoutType: solubility (mole fraction)

[[record]]
smilesstr = "Fc1c(I)c(F)c(I)c(F)c1I"
recordedvalue = 0.00128


###

# reportedConditions: in THF, 330.35 K
readoutType: solubility (mole fraction)

[[record]]
smilesstr = "Fc1c(I)c(F)c(I)c(F)c1I"
readouttype = "solubility (mole fraction)"
recordedvalue = 0.00648


###

# reportedConditions: in 1,4-dioxane, 314.15 K
readoutType: solubility (mole fraction)

[[record]]
smilesstr = "Fc1c(I)c(F)c(I)c(F)c1I"
recordedvalue = 0.000593


###

# reportedConditions: in acetonitrile, 295.85 K
readoutType: solubility (mole fraction)

[[record]]
smilesstr = "Fc1c(I)c(F)c(I)c(F)c1I"
readouttype = "solubility (mole fraction)"
recordedvalue = 0.00415


###

# reportedConditions: in n-hexane, 318.55 K
readoutType: solubility (mole fraction)

[[record]]
smilesstr = "Fc1c(I)c(F)c(I)c(F)c1I"
recordedvalue = 0.0116


###

# reportedConditions: in n-hexane, 293.55 K
readoutType: solubility (mole fraction)

[[record]]
smilesstr = "Fc1c(I)c(F)c(I)c(F)c1I"
recordedvalue = 0.00643


###

# reportedConditions: in 1,4-dioxane, 311.15 K
readoutType: solubility (mole fraction)

[[record]]
smilesstr = "Fc1c(I)c(F)c(I)c(F)c1I"
recordedvalue = 0.000553


###

# reportedConditions: in THF, 315.35 K
readoutType: solubility (mole fraction)

[[record]]
smilesstr = "Fc1c(I)c(F)c(I)c(F)c1I"
recordedvalue = 0.00578


###

# reportedConditions: in acetone, 325.15 K
readoutType: solubility (mole fraction)

[[record]]
smilesstr = "Fc1c(I)c(F)c(I)c(F)c1I"
readouttype = "solubility (mole fraction)"
recordedvalue = 0.000182

